- System: Proteus mirabilis 470/1
- ASSAY PROTOCOL: Minimum inhibitory concentration, urinary tract organisms (Example 13)
- Type: cell-based
- EXPERIMENTAL CONTEXT: Pm 470/1, read-out: Minimum Inhibitory Concentration
- Method: The test compound was added to molten agar as a solution (when conveniently soluble in a solvent such as dimethylformamide) or a suspension forming a mixture having a concentration of 0.05 percent (500 ppm). […] After the initial readings, compounds showing sufficient activity were re-tested at various concentrations to determine the minimum inhibitory concentration (in ppm) of the compounds of the invention against the various bacteria and fungi tested. […]
TEST READOUT: MIC (µg/mL)
Hi! Could you send only the number? It should be in µg/mL, unit omitted.

Solved cases (3 shown):
[[record]]
compound = "CCOC(=O)CNC(=O)Oc1ccc(Cl)c2cccnc12.CS(=O)(=O)O [Example 7]"
study_system = "Proteus mirabilis 470/1"
reading = 75

[[record]]
compound = "CCOC(=O)CNC(=O)Oc1ccc(Cl)c2cccnc12.Cl [Example 8]"
study_system = "Proteus mirabilis 470/1"
reading = 50

[[record]]
compound = "O=C(NCCCl)Oc1ccc(Cl)c2cccnc12 [Example 6]"
study_system = "Proteus mirabilis 470/1"
reading = 250


MIC for Proteus mirabilis 470/1 with input CCOC(=O)CNC(=O)Oc1ccc(Cl)c2cccnc12 [Example 1] equals 50
